- Test system: P. aeruginosa Ps 21
- ASSAY_INFO: Antibacterial activity (MIC, agar dilution per CLSI) against P. aeruginosa Ps 21
- Type: cell-based
- TEST_SETTINGS: Pseudomonas aeruginosa, PS21; MDR P. aeruginosa strain; agar dilution, 16-20 hours at 35±2° C.; read-out: MIC Ps 21
MEASURE: MIC

For reference, reported MIC for C[C@H]1[C@H](NC(=O)/C(=N\OC(C)(C)C(=O)O)c2csc(N)n2)C(=O)N1S(=O)(=O)O [Aztreonam, reference compound] stands at 8 µg/mL

Entry O=C(NOC[C@@H]1CCCN1)[C@@H]1CC[C@@H]2CN1C(=O)N2OS(=O)(=O)O — recorded MIC = > 32 µg/mL

Record summary for O=C(NOC[C@H]1CCNC1)[C@@H]1CC[C@@H]2CN1C(=O)N2OS(=O)(=O)O : reported MIC = > 32 µg/mL

----------
Could you please report measured MIC for the items listed next?
- System: P. aeruginosa Ps 21
- ASSAY_INFO: Antibacterial activity (MIC, agar dilution per CLSI) against P. aeruginosa Ps 21
- Format: cell-based
- TEST_SETTINGS: Pseudomonas aeruginosa, PS21; MDR P. aeruginosa strain; agar dilution, 16-20 hours at 35±2° C.; read-out: MIC Ps 21

The compound listed as O=C(NOC[C@H]1CCCN1)[C@@H]1CC[C@@H]2CN1C(=O)N2OS(=O)(=O)O [Example 2] has a reported MIC of > 32 mg/L

// sample CC(C)(O/N=C(\C(=O)N[C@@H]1C(=O)N2C(C(=O)[O-])=C(C[n+]3ccccc3)CS[C@H]12)c1csc(N)n1)C(=O)O [Ceftazidime, reference compound] , its MIC was > 32 mg/L

Value of MIC reported for the compound O=C(NOC[C@@H]1CCNC1)[C@@H]1CC[C@@H]2CN1C(=O)N2OS(=O)(=O)O [Example 4] is > 32 mg/L

Just so you know, measured MIC for C[C@@H](O)[C@H]1C(=O)N2C(C(=O)O)=C(SCCN=CN)C[C@H]12 [Imipenem, reference compound] came out at > 32 mg/L
